Reported MIC values follow for various compounds
# Test system: Pseudomonas aeruginosa
# procedure details: Antimicrobial activity against Pseudomonas aeruginosa ATCC 9027 assessed as inhibition of microbial growth incubated for 24 hrs
# Format: functional
# conditions used: ATCC 9027, 24 h
# output: bare number, implied unit µM

// query Write down the reported MIC (system: Pseudomonas aeruginosa) of CC(=O)N[C@@H](CCCNC(=N)N)c1nc(C)sc1C(=O)N[C@@H](C)c1nc(CCCNC(=N)N)sc1C(=O)N[C@@H](C)c1nc(C)sc1C(=O)N[C@@H](CCCNC(=N)N)c1nc(C)sc1C(=O)N[C@@H](C)c1nc(CCCNC(=N)N)sc1C(=O)N[C@@H](C)c1nc(C)sc1C(=O)N[C@@H](CCCNC(=N)N)c1nc(C)sc1C(=O)N[C@@H](C)c1nc(CCCNC(=N)N)sc1C(=O)N[C@@H](C)c1nc(C)sc1C(=O)N[C@@H](CCCNC(=N)N)c1nc(C)sc1C(=O)N[C@@H](C)c1nc(CCCNC(=N)N)sc1C(=O)N[C@@H](C)c1nc(C)sc1C(N)=O
// result 4.2

// query Report measured MIC on Pseudomonas aeruginosa; entry: CC(=O)N[C@@H](CCCNC(=N)N)c1nc(C)sc1C(=O)N[C@@H](C)c1nc(CCCNC(=N)N)sc1C(=O)N[C@@H](C)c1nc(C)sc1C(=O)N[C@@H](CCCNC(=N)N)c1nc(C)sc1C(=O)N[C@@H](C)c1nc(CCCNC(=N)N)sc1C(=O)N[C@@H](C)c1nc(C)sc1C(=O)N[C@@H](CCCNC(=N)N)c1nc(C)sc1C(=O)N[C@@H](C)c1nc(CCCNC(=N)N)sc1C(=O)N[C@@H](C)c1nc(C)sc1C(N)=O
// result 54

***
// query Tell me MIC of CC(=O)N[C@@H](CCCCN)c1nc(C)sc1C(=O)N[C@@H](CC(C)C)c1nc(CCCCN)sc1C(=O)N[C@@H](C)c1nc(CC(C)C)sc1C(=O)N[C@@H](CCCCN)c1nc(C)sc1C(=O)N[C@@H](CC(C)C)c1nc(CCCCN)sc1C(=O)N[C@@H](C)c1nc(CC(C)C)sc1C(=O)N[C@@H](CCCCN)c1nc(C)sc1C(=O)N[C@@H](CC(C)C)c1nc(CCCCN)sc1C(=O)N[C@@H](C)c1nc(CC(C)C)sc1C(=O)N[C@@H](CCCCN)c1nc(C)sc1C(=O)N[C@@H](CC(C)C)c1nc(CCCCN)sc1C(=O)N[C@@H](C)c1nc(CC(C)C)sc1C(N)=O when tested on Pseudomonas aeruginosa.
// result 14.6

These measurements were taken from ChEMBL document CHEMBL4619808.
